# Tested on: U-251
# experiment_summary: NCI tumour cell line growth inhibition, 48 h
Calls of active or inactive are those of the source. Rule as the data show it: active = GI50 up to about 1.1 µM and inactive = higher.
API: response.call in t for active, f for inactive

Qu. Status in this test for `COc1cccc(N2C(=O)/C(=C/c3ccc(N(CCC#N)CCC#N)cc3)N=C2c2cc([N+](=O)[O-])ccc2Cl)c1` ?
Ans. f

Qu. # repeat for CN(C)c1ccc(C(C#N)N2CCCN(C(C#N)c3ccc(N(C)C)cc3)C2c2ccc(N(C)C)cc2)cc1 (stereo unspecified)
Ans. f

Qu. # repeat for `COc1ccc2c(c1)[C@@H](NC(C)=O)CCc1cc(OC)c(OC)c(OC)c1-2`
Ans. t

Qu. # repeat for CC1(Cc2ccccc2)NC(=S)NC1=O (stereo unspecified)
Ans. f

Qu. # repeat for `O=c1[nH]c(=O)c2c3n(cc2[nH]1)CCCCC3`
Ans. f

Others:
Qu. Status in this test for O=C(c1nc2ccc(Cl)cc2nc1O)C(O)c1ccc2c(c1)OCO2 (stereo unspecified) ?
Ans. f

Qu. # repeat for CC(C)(C)c1cc2c(O)c(c1)C(c1ccccc1)c1cc(C(C)(C)C)cc(c1O)Cc1cc(C(C)(C)C)cc(c1O)C(c1ccccc1)c1cc(C(C)(C)C)cc(c1O)C2 (stereo unspecified)
Ans. f

Qu. # repeat for `O=C1C(=O)N(c2nccs2)C(=O)C(=O)C1c1nc2ccccc2s1`
Ans. f

Qu. # repeat for CCOC(=O)C(NC(=O)c1ccccc1)(Nc1ccc(S(=O)(=O)Nc2ccc(OC)nn2)cc1)C(F)(F)F (stereo unspecified)
Ans. f

Qu. # repeat for `COC(=O)c1c(C(=O)OC)c(C(c2ccccc2)c2ccccc2)n(-c2ccccc2)c1Cl`
Ans. f

Qu. # repeat for `Cc1nc2cc(Nc3ccccc3C(=O)O)ccc2s1`
Ans. f

Qu. # repeat for `COc1ccc(CNc2nc(NCc3ccc(OC)cc3)nc(NC3CCCC3)n2)cc1`
Ans. f

Qu. # repeat for CC#CC(O)(C(=O)OCCCN(C)C)C1CCCCC1 (stereo unspecified)
Ans. f

Qu. # repeat for `COC(=O)[C@@H]1CN(C(=O)Cc2ccccc2)C(=O)N1`
Ans. f

Qu. # repeat for `Nc1c(C(=O)Nc2ccccc2O)[n+]([O-])c2ccccc2[n+]1[O-]`
Ans. f

Qu. # repeat for COc1ccc(/N=N/c2c(C)c(C#N)c(=S)n(C3OC(CO)C(O)C(O)C3O)c2-c2ccccc2)cc1 (stereo unspecified)
Ans. f

Qu. # repeat for `COC(=O)c1cc(-c2ccc3ccccc3c2)nc(O)c1C#N`
Ans. f

Qu. # repeat for CSc1nc2c(nc(N)n2C2OC(CO)C(O)C(O)C2O)c(=O)[nH]1 (stereo unspecified)
Ans. f

Qu. # repeat for `COc1ccc(-c2cc(=O)c3c(O)cc(O)cc3o2)cc1OC`
Ans. f

Qu. # repeat for `Cc1n[nH]c(=O)n1C1CC1`
Ans. f

Qu. # repeat for `COc1ccc(/C=C(\C(=O)OCC(C)C)c2ccc(OC)c(OC)c2)cc1OC`
Ans. f

---

# Test system: NCI/ADR-RES
# experiment_summary: NCI tumour cell line growth inhibition, 48 h
The source made the active and inactive calls. Rule as the data show it: active = GI50 up to about 1.1 µM and inactive = higher.
property: GI50

Qu. Param item = `Cc1ccc(C(=O)/C=C2/Nc3ccc([N+](=O)[O-])cc3N/C2=C/C(=O)c2ccc(C)cc2)cc1` ; retrieve measured GI50.
Ans. 47.6 µM (inactive)

Qu. # repeat for COC1CN(C)/C(=N\c2cccc3ccccc23)S1 (stereo not given)
Ans. > 10 µM (inactive)

Qu. # repeat for `O=P(O)(O)CN1CCNCCN(CP(=O)(O)O)CCNCC1`
Ans. 35.2 µM (inactive)

Qu. # repeat for `COc1ccc(-c2cc(=O)c3c(O)cc(O)cc3o2)cc1OC`
Ans. 56.8 µM (inactive)

Here's the next entry for you.
Qu. Param item = `O=C(CSc1nc2ccccc2c(=O)n1-c1ccccc1)N/N=C1\C(=O)Nc2ccc(F)cc21` ; retrieve measured GI50.
Ans. 2.21 µM (inactive)
